# Test system: T47D cells
# Protocol description: Anti-proliferation (viability) of ER+ breast cancer T47D cells, 6 days (Table 7, FIG. 2B)
# Format: cell-based
# Condition summary: Homo sapiens, 144 h; T47D cells, 6 days, 10-point serial dilution; read-out: GI IC50 in T47D
Property name: IC50

compound=CNc1ccc(C(=O)Nc2ccc(N(C)C)nn2)c(NC2CC3(C2)CN(C(=O)CCN2CCN(c4ccc(Nc5ncc6c(C)c(C(C)=O)c(=O)n(C7CCCC7)c6n5)nc4)CC2)C3)n1 result="≤ 50 nM"
compound="CNc1ccc(C(=O)Nc2cn(C)c(C3CC3)n2)c(NC2CC(CNC(=O)CN3CCN(c4ccc(Nc5ncc6c(C)c(C(C)=O)c(=O)n(C7CCCC7)c6n5)nc4)CC3)C2)n1 (centres unmarked)" result="≥ 100 nM"
compound=CNc1ccc(C(=O)Nc2cc(C)n(C)n2)c(NCCCCCNC(=O)CN2CCN(c3ccc(Nc4ncc5c(C)c(C(C)=O)c(=O)n(C6CCCC6)c5n4)nc3)CC2)n1 result="50 to 100 nM"
compound="CC(=O)c1c(C)c2cnc(Nc3ccc(N4CCN(CC(=O)NCC5CC(Nc6c(F)cccc6C(=O)Nc6cc(C)n(C)n6)C5)CC4)cn3)nc2n(C2CCCC2)c1=O (centres unmarked)" result="≥ 100 nM"
compound="CNc1ccc(C(=O)Nc2ccc(N(C)C)nn2)c(NC2CC3(CC(CNC(=O)N4CCN(c5ccc(Nc6ncc7c(C)c(C(C)=O)c(=O)n(C8CCCC8)c7n6)nc5)CC4)C3)C2)n1 (centres unmarked)" result="50 to 100 nM"
compound="CNc1ccc(C(=O)Nc2ccc(N(C)C)nn2)c(NC2CC(CNC(=O)CN3CCN(c4ccc(Nc5ncc6c(C)c(C(C)=O)c(=O)n(C7CCCC7)c6n5)nc4)CC3)C2)n1 (centres unmarked)" result="≤ 50 nM"
compound="CC(=O)c1c(C)c2cnc(Nc3ccc(N4CCN(CC(=O)NC5CC6(C5)CC(Nc5nc(NC(C)C)ccc5C(=O)Nc5cn(C)c(C7CC7)n5)C6)CC4)cn3)nc2n(C2CCCC2)c1=O (centres unmarked)" result="≤ 50 nM"
compound="CNc1ccc(C(=O)Nc2ccc(C)c(C3CC3)n2)c(NC2CC3(CC(NC(=O)CN4CCN(c5ccc(Nc6ncc7c(C)c(C(C)=O)c(=O)n(C8CCCC8)c7n6)nc5)CC4)C3)C2)n1 (centres unmarked)" result="50 to 100 nM"
compound=CC(=O)c1c(C)c2cnc(Nc3ccc(N4CCN(CC(=O)NCCCCCNc5nc(C#N)ccc5C(=O)Nc5ccc(N(C)C)nn5)CC4)cn3)nc2n(C2CCCC2)c1=O result="≤ 50 nM"
compound=CNc1ccc(C(=O)Nc2cccc(C)n2)c(NC2CC3(C2)CN(C(=O)CCN2CCN(c4ccc(Nc5ncc6c(C)c(C(C)=O)c(=O)n(C7CCCC7)c6n5)nc4)CC2)C3)n1 result="50 to 100 nM"
compound=CNc1ccc(C(=O)Nc2ccc(N(C)C)nn2)c(NCCCCCNC(=O)CN2CCN(c3ccc(Nc4ncc5c(C)c(C(C)=O)c(=O)n(C6CCCC6)c5n4)nc3)CC2)n1 result="≤ 50 nM"
compound=CC(=O)c1c(C)c2cnc(Nc3ccc(N4CCN(CC(=O)NCCCCCNc5nc(NC(C)(C)C)ccc5C(=O)Nc5ccc(N(C)C)nn5)CC4)cn3)nc2n(C2CCCC2)c1=O result="50 to 100 nM"
compound="CNc1ccc(C(=O)Nc2ccc(N(C)C)nn2)c(NC2CCC(CCNC(=O)CN3CCN(c4ccc(Nc5ncc6c(C)c(C(C)=O)c(=O)n(C7CCCC7)c6n5)nc4)CC3)C2)n1 (centres unmarked)" result="50 to 100 nM"
compound=CC(=O)c1c(C)c2cnc(Nc3ccc(N4CCN(CC(=O)NCCCCCNc5nc(C6CC6)ccc5C(=O)Nc5ccc(N(C)C)nn5)CC4)cn3)nc2n(C2CCCC2)c1=O result="50 to 100 nM"
compound=CNc1ccc(C(=O)Nc2ccc(N(C)C)nn2)c(NCCCCCCCNC(=O)CN2CCN(c3ccc(N(C)c4ncc5c(C)c(C(C)=O)c(=O)n(C6CCCC6)c5n4)nc3)CC2)n1 result="≥ 100 nM"
compound="CNc1ccc(C(=O)Nc2ccc(N(C)C)nn2)c(NCCCCC(C)NC(=O)CN2CCN(c3ccc(Nc4ncc5c(C)c(C(C)=O)c(=O)n(C6CCCC6)c5n4)nc3)CC2)n1 (centres unmarked)" result="≤ 50 nM"
compound="CNc1ccc(C(=O)Nc2cn(C)c(C3CC3)n2)c(NC2CC3(CC(NC(=O)CN4CCN(c5ccc(Nc6ncc7c(C)c(C(C)=O)c(=O)n(C8CCCC8)c7n6)nc5)CC4)C3)C2)n1 (centres unmarked)" result="≥ 100 nM"
compound="CNc1ccc(C(=O)Nc2ccc(N(C)C)nn2)c(NCCCCCNC(=O)C(C)N2CCN(c3ccc(Nc4ncc5c(C)c(C(C)=O)c(=O)n(C6CCCC6)c5n4)nc3)CC2)n1 (centres unmarked)" result="50 to 100 nM"
compound="CNc1ccc(C(=O)Nc2ccc(N(C)C)nn2)c(NC2CC3(CC(NC(=O)CN4CCN(c5ccc(Nc6ncc7c(C)c(C(C)=O)c(=O)n(C8CCCC8)c7n6)nc5)CC4)C3)C2)n1 (centres unmarked)" result="≤ 50 nM"
compound="CC(=O)c1c(C)c2cnc(Nc3ccc(N4CCN(CC(=O)NC5CC6(C5)CC(Nc5nc(NC(C)C)ccc5C(=O)Nc5cc(C)n(C)n5)C6)CC4)cn3)nc2n(C2CCCC2)c1=O (centres unmarked)" result="≥ 100 nM"
compound="CNc1ccc(C(=O)Nc2ccc(N(C)C)nn2)c(NC2CC(CCNC(=O)CN3CCN(c4ccc(Nc5ncc6c(C)c(C(C)=O)c(=O)n(C7CCCC7)c6n5)nc4)CC3)C2)n1 (centres unmarked)" result="≤ 50 nM"
compound=[2H]C([2H])([2H])Nc1ccc(C(=O)Nc2cccc(C3CC3)n2)c(NC2CCN(C(=O)CN3CCN(c4ccc(Nc5ncc6c(C)c(C(C)=O)c(=O)n(C7CCCC7)c6n5)nc4)CC3)CC2)n1 result="≥ 100 nM"
compound=CNc1ccc(C(=O)Nc2ccc(N(C)C)nn2)c(NCCCCCNCCN2CCN(c3ccc(Nc4ncc5c(C)c(C(C)=O)c(=O)n(C6CCCC6)c5n4)nc3)CC2)n1 result="50 to 100 nM"
